Listing of entries alongside the reported RP-LC retention time.
Test: gradient 5% acetonitrile 3 min, to 50% in 2 min, to 85% in 15 min, held 3 min, 100 µL/min
Details: column: Zorbax Extend-C18 2.1 x 50 mm; eluents: water / acetonitrile, 0.1% formic acid
OBSERVABLE: RP-LC retention time

> print(dat)
                                    molecule  test.result
 1  CCN1CCN(C(=O)c2cc(-c3ccc(C)cc3)cn2CC)CC1        678 s
 2  Cn1ccnc1C(=O)N1CC(n2cc(C(=O)N3CCOCC3)nn2)C1        581 s
 3  COC1CCC12CCN(C(=O)c1ocnc1C)CC2 (stereo not given)        692 s
 4  COc1cccc(NC(=O)C2CCCN(c3ncnc4oc(C)c(C)c34)C2)c1 (stereo not given)        891 s
 5  Cc1ccc(C)c(S(=O)(=O)N2CCCN(C)c3ccccc32)c1       1100 s
 6  Cn1nccc1-c1cccc(-c2noc(-c3ccc(F)cc3F)n2)c1       1120 s
 7  Cc1cc(-c2nnc(NC(=O)Cc3ccc4c(c3)OCO4)o2)n(C)n1        648 s
 8  O=C(NCC(c1cccs1)N1CCc2ccccc21)c1ccco1 (stereo not given)        894 s
 9  COCCN1C(=O)CCc2cc(NC(=O)c3cncc(Br)c3)ccc21        716 s
10  Cc1ccc(Cl)cc1NC(=O)N1CCCC1c1nc(-c2ccccc2C)no1 (stereo not given)       1120 s
11  COc1ccc(-c2noc(Cc3nnc(-c4ccc(C)c(F)c4)o3)n2)cc1OC        996 s
12  O=S(=O)(c1ccc(Br)s1)N1CCc2nc(-c3ccccc3)ncc2C1       1160 s
13  CN(Cc1nc(-c2ccc(N3CCSCC3)nc2)no1)C1CCCCC1        694 s
14  Cc1ccc(-n2nc(N3CCCN(S(=O)(=O)c4ccccc4)CC3)ccc2=O)cc1C        947 s
15  COc1ccc(CNc2c(C(=O)OC(C)C)cnc3nc(C)ccc23)cc1        740 s
16  Cc1ccccc1S(=O)(=O)N1CCC2(CC1)CC(OCC1CC1)CCO2 (stereo not given)       1080 s
17  COc1ccc(-c2cnn(CC(=O)Nc3cc(F)cc(F)c3)c(=O)n2)cc1        872 s
18  COC(=O)c1cccc(COC(=O)C2=CN(C)S(=O)(=O)N=C2C)c1        874 s
19  Cc1cccc(Nc2nc(CC(=O)NCc3ccccc3OC(F)(F)F)cs2)n1        708 s
20  Cc1nn(C)c(C)c1S(=O)(=O)N1[C@H]2CC[C@@H]1c1cnc(-c3ccccc3)nc1C2        865 s

----------
Experiment: gradient 5% acetonitrile 3 min, to 50% in 2 min, to 85% in 15 min, held 3 min, 100 µL/min
Settings: column: Zorbax Extend-C18 2.1 x 50 mm; eluents: water / acetonitrile, 0.1% formic acid
OBSERVABLE: RP-LC retention time

> print(dat)
                                    compound  test.result
 1  COC(=O)c1ccc(-c2nc3cnccn3c2Nc2cc(C)cc(C)c2)cc1        978 s
 2  COC(=O)c1cc(S(=O)(=O)N2CCCC2C(=O)NCc2ccccn2)cn1C (centres undefined)        590 s
 3  Cc1cccc(CS(=O)(=O)N2CC(c3nc(Cc4ccccc4)no3)C2)c1        977 s
 4  CCC(=O)N(C1CCOCC1)C1CCN(S(=O)(=O)c2cccc(C)c2)CC1        836 s
 5  Cc1cccc(-c2nc(C3CCN(S(=O)(=O)c4ccccc4)CC3)no2)c1       1150 s
 6  COc1ccc(CCNC(=O)CSc2c[nH]c3ccccc23)cc1OC        717 s
 7  O=C(NCc1ccc(F)cc1F)c1ccc2c(c1)nc1n2CCN(Cc2ccccc2)C1=O        795 s
 8  CCOc1nc2ccccc2nc1N1CCCC(C(=O)NC2CCCCC2)C1 (centres undefined)       1170 s
 9   CCNC(=O)c1nc(C(=O)NCc2ccc(F)c(Cl)c2)cs1        819 s
10  CC(Cc1ccco1)NC(=O)c1ccc2ccnc(N3CCN(c4ccccc4)CC3)c2c1 (centres undefined)        806 s
11  COc1ccc(NC(=O)N2CCC(C(=O)NCc3csc(-c4ccccc4)n3)CC2)c(OC)c1        777 s
12          Cc1ccc(CNC(=O)Nc2ccc3nncn3c2)cc1        680 s
13  O=C(Nc1c(-c2ccc(F)cc2)nc2ccccn12)c1ccc(Br)cc1        716 s
14  Cc1ccc(CN2CCC(CNC(=O)Cn3c(=O)c(C)nc4cc(C)c(C)cc43)C2)cc1 (centres undefined)        638 s
15  COCCOC1CN(C2CCN(Cc3ccccc3C#N)CC2)C12CCCCC2 (centres undefined)        572 s
16  COCCN1C(=O)c2ccccc2C(C(=O)NCc2ccc(F)cc2)C12CCCC2 (centres undefined)        879 s
17  CCn1cnc2cc(-c3noc(C(C)NS(=O)(=O)c4ccc(C)cc4)n3)ccc21 (centres undefined)        683 s
18  COC(=O)c1ccc(C(=O)N(Cc2ccccn2)Cc2ccco2)cc1        650 s
19  CCOc1ccccc1NC(=O)C1CN(S(C)(=O)=O)CC12CCCCC2 (centres undefined)        682 s
20  CCc1cc(=O)n(CC(=O)N2CCN(c3ccc(OC)cc3)CC2)c(N2CCOCC2)n1        668 s
21  COCCN1C(=O)CCC2(CNC(=O)c3cnccn3)CCCC=C12 (centres undefined)        657 s
22  O=C(NCCc1csc(-c2ccccc2)n1)C1CCN(S(=O)(=O)c2ccccc2)CC1        881 s
23  Cc1cc(N2CCN(c3ccccn3)CC2)n2nc(-c3cccc(Cl)c3)c(C)c2n1        828 s
24        Cc1nc(-c2ccc(C(=O)NC3CCCC3)cc2)cs1        825 s
25  CCOC(=O)C1=C(C)NC(=O)NC1c1c(F)cccc1Cl (centres undefined)        724 s
26  CSc1cccc(NC(=O)Cn2c(=O)n(-c3ccc(F)cc3)c(=O)c3c2cc(C)n3C)c1        896 s
27             OCCOCCNCc1ccc(-c2ccc(F)cc2)o1        620 s
28  CN(C)[C@@H]1CN(Cc2cccc(OC(F)(F)F)c2)CC[C@@H]1CO        585 s
29  CCOC(=O)CCNC(=O)N1[C@H]2CC[C@@H]1c1cnc(-c3ccc(F)cc3)nc1C2        797 s
30  COc1cc2c(cc1OC)C(C(=O)NCc1ccc3c(c1)OCO3)C1c3ccccc3CCN1C2=O (centres undefined)        788 s
31  Cc1cc(NC(=O)C2CCc3nc(N4CCOCC4)ncc3C2)ccc1Cl (centres undefined)        897 s
32  Cn1cc(CC(=O)N2CCN(c3ccccc3F)CC2)c2ccccc21        915 s
33  O=C(NC1CC(=O)N(c2ccc3c(c2)OCCO3)C1)c1ccc(-c2ccccc2)cc1 (centres undefined)        866 s
34  CCc1ccc(-c2noc(Cn3c(=O)n(-c4ccc(F)cc4)c(=O)c4sccc43)n2)cc1       1090 s
35  O=C(CN1N=C(c2ccccc2)c2ccccc2S1(=O)=O)Nc1cccc(Cl)c1       1020 s
36  CCn1cc(S(=O)(=O)N2C[C@@H](COC)[C@H](c3ccncc3)C2)cn1        625 s
37  O=C1CCCC1C(=O)Nc1ccc2ccccc2c1 (centres undefined)        884 s
38     CCC(=O)Nc1sc2c(c1C(=O)Nc1ccccc1)CCCC2        704 s
39  Cc1ccc(CNC(=O)C2CCN(S(=O)(=O)c3c(C)[nH]c(C)c3C(=O)N3CCCC3)CC2)cc1        720 s
